- Measurement protocol: yeast display, Sf9 membrane polyspecificity reagent, FACS + sequencing; frameworks hold sequencing errors
Observable: polyreactivity (PSR sort gate)

Below, each entry is followed by its recorded polyreactivity (PSR sort gate) result.
polymer_sequence=QVQLVESGGGLVQAGGSLRLSCAASGRTFYRYAMGWYRQAPGKEREFVAAISRCGGSTYYADSVKGRFTISRDNAKNTVFLQMNRLKPEDTGVYYCNADTRAGGFYTPYGRDYWGQGSQVTVSS observable="polyreactivity (PSR sort gate)" test_result="high polyreactivity"
polymer_sequence=QVQLLESGGGLVQAGGSLLLSCAASGLTFHRYAMGWYRQAPGKERELFAAINYSGGRTYYADSVKGRFTISRDNAKNTVYLQMNSLKPEDSAVYYCAARYLGCDYSGSWWKYYYWGQGTQVTVSS observable="polyreactivity (PSR sort gate)" test_result="high polyreactivity"
polymer_sequence=QVQLVESGGGLVQAGGSLRLSCAASGSTFRYYTMGWYRQAPGKERELVASISRSGSTSYADSVKGRFTISRDNAKNTVYLLMNSLKPEDTAVYYCARESFFGAYAGYDYWGQGTQVTVSS observable="polyreactivity (PSR sort gate)" test_result="low polyreactivity"
polymer_sequence=PVQLVESGGGLVQAGGSLRLSCAASGFTFTRYVMGWYRQAPGKERELVAAISGSGGSTNYADSVKGRFTISRDNAKNTVSLQMISLKPEDTAVYYCADRFVGSRYRFDYWGQGTQVTVSS observable="polyreactivity (PSR sort gate)" test_result="high polyreactivity"
polymer_sequence=QVQLVESGGGLVQAGGSLSLSCAASGRIFTYYAMGWYRQAPGKERELVAAINWGVVTTYYADSVKGRFTISRDNAKNTVYLQMNSLKPEDTAVYYCAADWFAANYYVNPVSALDYWGQGTQVTVSS observable="polyreactivity (PSR sort gate)" test_result="low polyreactivity"
polymer_sequence=QVQLVESGGGIVQAGGSLRLSCAASGSIFGPYAMGWYRQAPGKERELVAAITWTGGRTYYADSVKGRFTISRDNAKNTVYLQMNSLKPEDTAVYYCAADYSPSTWYLYYTLYYYWGQGTQVTVSS observable="polyreactivity (PSR sort gate)" test_result="low polyreactivity"
polymer_sequence=QVQLVESGGGLVQAGGSLRLSCAASGFIFPGYAMGWYRQAPGKEREFVAVISRSGVRTYYADSVKGRFTISRDNAKNTVYLQMNSLKPEDTAVYYCAARYYSTDLEYWGQGTQVTVSS observable="polyreactivity (PSR sort gate)" test_result="low polyreactivity"
polymer_sequence=QVQLVESGGGLVQAGGSLRLSCAASGRTLCVNAMGWYRQAPGKERELVAAISTRGTTTNYADSVKGRFTISRDIAKNTVYLQMNSLKPEDSAVYYCATRTYRTYPRYDYWGQGTQVTVSS observable="polyreactivity (PSR sort gate)" test_result="low polyreactivity"

query: Item under review: QVQLVESGGGLVQAGGSLRLSCAASGFTFYLNAMGLYRQAPGKERELVAGISWRGGRTYYADSVKGRFTISRDNAKNSVYLQMNSLKAEDTAVYYCAAVTYSFQKTDYYWGQGTQVTVSS . Reported polyreactivity (PSR sort gate)?
result: high polyreactivity

query: Item under review: QVQLVESGGGLVQAGGSLRLSCAASGSIFYRNTMGWYRQATGKERELVARISNGGSTNYADSVKGRFTISRDNAKNTVYLQMNSLKPEDTAVYYCNARRGSATHSVTARRGYWGQGTQVTVSS . Reported polyreactivity (PSR sort gate)?
result: high polyreactivity

query: Item under review: QVQLVESGGGLVQAGGSLRLSCAASGSTIFSYAMGWYRQAPGKERELVAAISWIDDGTYYADSVKGRFTISRDNAKNTVYLQMNSLKPEDTAVYYCAADIGAYRTWDYEYWGQGTQVTVSS . Reported polyreactivity (PSR sort gate)?
result: low polyreactivity

query: Item under review: EEELVESGGGLVQAGGSLRLSCAATGSIFVVNAMRWYRQAPGKERELVAAIARGGITNYADSVKGRFTISRDNAKNTVYLQMNSLKPEDTAVYYCNARGSRWVKPDRDYWGQGTQVTVSS . Reported polyreactivity (PSR sort gate)?
result: low polyreactivity

query: Item under review: QVQLVESGGGLVQAGGSLRLSCAASGRTFGFNVMGWYRQAPGKEREFVAAITRSGGSTYYADSVKGRFTISRDNAKNTVYLQMNSLKPEDTAVYYCAAYKFSARYYYWGQGTQVTVSS . Reported polyreactivity (PSR sort gate)?
result: high polyreactivity

From: the nanobody polyreactivity screen of Harvey et al. (2022)
